B1: TRIM63 (parent)
chain: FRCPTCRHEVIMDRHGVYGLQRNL

- Variants of: B1
- method-description: protein stability index of a GFP-peptide fusion (GPS, HEK-293T) (PSI 1-6); higher = more stable;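 further: lentivirally expressed fusions sorted by FACS into six bins by GFP to DsRed ratio, PSI derived from sequencing read proportions per bin multiplied by bin number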
- particulars: c terminus: a fixed tail appended
A collection of variants and their measured protein stability index

# variant, protein stability index
data = [
    ("L24I", 1.69),
    ("G19Y", 2.92),
    ("V10M", 1.74),
    ("N23H", 2.5),
    ("F1I", 1.47),
    ("G19P", 2.25),
    ("E9R", 1.47),
    ("M12G", 2.8),
    ("R7G", 3.57),
    ("R2Q", 1.84),
    ("H8P", 3.14),
    ("F1Y", 1.96),
    ("F1S", 2.62),
    ("R2S", 1.4),
    ("F1E", 2.69),
    ("V17S", 2.77),
    ("C6N", 2.38),
    ("H15W", 2.11),
    ("P4I", 3.9),
    ("G16E", 1.87),
    ("L20V", 2.71),
    ("C6K", 2.15),
    ("P4G", 1.38),
    ("L24T", 2.98),
    ("V17A", 2.98),
    ("P4A", 2.38),
    ("H8S", 1.96),
    ("Q21E", 2.73),
    ("L24M", 2.03),
    ("H15A", 1.67),
    ("N23S", 2.14),
    ("V10R", 2.41),
    ("D13P", 2.15),
    ("T5S", 1.82),
    ("C6W", 1.77),
    ("V17F", 2.75),
    ("D13F", 1.71),
    ("Q21M", 1.63),
    ("R14S", 3.39),
    ("C3S", 2.41),
    ("L20K", 1.51),
    ("D13V", 1.32),
    ("R22D", 3.21),
    ("D13I", 2.07),
    ("Q21R", 1.98),
    ("R14P", 2.05),
    ("G19S", 2.21),
    ("C6P", 2.89),
    ("R22F", 1.84),
    ("R14I", 1.96),
    ("I11H", 2.54),
    ("R14G", 2.01),
    ("G19A", 2.7),
    ("M12R", 2.11),
    ("R14H", 1.71),
    ("H15T", 2.46),
    ("E9V", 3.23),
    ("R22C", 2.29),
    ("Q21D", 2.1),
    ("E9A", 2.48),
    ("H8F", 2.64),
    ("Y18H", 1.87),
    ("C6L", 2.16),
    ("R2K", 1.77),
    ("H15S", 2.44),
    ("I11F", 2.23),
    ("R2Y", 1.87),
    ("P4T", 3.2),
    ("N23R", 2.54),
    ("L24G", 2.99),
    ("H15N", 2.13),
    ("L20S", 2.11),
    ("R22I", 3.38),
    ("G19E", 1.86),
    ("G19N", 2.21),
    ("P4D", 2.24),
    ("V10D", 2.9),
    ("C3N", 3.22),
    ("N23W", 2.79),
    ("N23M", 1.47),
    ("G16Q", 2.33),
    ("H8R", 1.89),
    ("V10F", 2.25),
    ("C3F", 3.62),
    ("R14C", 1.63),
    ("R7V", 2.93),
    ("C6R", 2.27),
    ("V17Y", 2.19),
    ("H15I", 2.19),
    ("R7C", 2.24),
    ("Q21K", 2.02),
]
